system: E.coli A261; experiment: Agar dilution test, minimum inhibitory concentration; format: cell-based; conditions: Escherichia coli; test strain E.coli A261; Isosensitest-Agar (Oxoid), inoculum ca. 10^4 germs per inoculation point; read-out: Minimale Hemmkonzentrationen
Here the recorded MIC is given for each entry.
Numeric answer only, unit µg/mL assumed.

# example entries with known answers
> print(dat)
                                   molecule  test.value
1  Nc1c(F)c(N2CCNC(c3ccc(F)cc3)C2)c(F)c2c1c(=O)c(C(=O)O)cn2C1CC1 (stereo not shown) [Beispiel 24]           1
2  CCNCC1CCN(c2c(F)c(N)c3c(=O)c(C(=O)O)cn(C4CC4)c3c2F)C1 (stereo not shown) [Beispiel 32]        0.06
3  Nc1c(F)c(N2CCNC(c3ccccc3)C2)c(F)c2c1c(=O)c(C(=O)O)cn2C1CC1 (stereo not shown) [Beispiel 23]        0.25

Looking for the measured MIC of CN1CCN(c2c(F)c(N)c3c(=O)c(C(=O)O)cn(C4CC4)c3c2F)CC1 [Beispiel 19] , can you help?
0.25

Looking for the measured MIC of Nc1c(F)c(N2CCN(CCO)CC2)c(F)c2c1c(=O)c(C(=O)O)cn2C1CC1 [Beispiel 21] , can you help?
0.5

Looking for the measured MIC of Nc1c(F)c(-n2ccnc2)c(F)c2c1c(=O)c(C(=O)O)cn2C1CC1 [Beispiel 30] , can you help?
2

###

test system: Proteus mir. 8175; assay: Agar dilution test, minimum inhibitory concentration; format: cell-based; conditions: test strain Proteus mir. 8175; Isosensitest-Agar (Oxoid), inoculum ca. 10^4 germs per inoculation point; read-out: Minimale Hemmkonzentrationen
quantity: MIC (µg/mL)
Numeric answer only, unit µg/mL assumed.

> print(dat)
                                   compound  test.value
1  CC1CN(c2c(F)c(N)c3c(=O)c(C(=O)O)cn(C4CC4)c3c2F)CCN1 (stereo not shown)        0.06

Looking for the measured MIC of Nc1c(F)c(-n2ccnc2)c(F)c2c1c(=O)c(C(=O)O)cn2C1CC1 , can you help?
0.06

Looking for the measured MIC of Nc1c(F)c(N2CCNC(c3ccc(F)cc3)C2)c(F)c2c1c(=O)c(C(=O)O)cn2C1CC1 (stereo not shown) , can you help?
0.25

Looking for the measured MIC of Nc1c(F)c(N2CCNC(c3ccccc3)C2)c(F)c2c1c(=O)c(C(=O)O)cn2C1CC1 (stereo not shown) , can you help?
0.06

Looking for the measured MIC of C[C@@H]1CN(c2c(F)c(N)c3c(=O)c(C(=O)O)cn(C4CC4)c3c2F)C[C@H](C)N1 , can you help?
0.06

Looking for the measured MIC of CCNCC1CCN(c2c(F)c(N)c3c(=O)c(C(=O)O)cn(C4CC4)c3c2F)C1 (stereo not shown) , can you help?
0.06

Looking for the measured MIC of Nc1c(F)c(N2CCCC2)c(F)c2c1c(=O)c(C(=O)O)cn2C1CC1 , can you help?
0.25

###

Here the recorded MIC is given for each entry.
test system: E.coli A261; experiment: Agar dilution test, minimum inhibitory concentration; type: cell-based; details: Escherichia coli; test strain E.coli A261; Isosensitest-Agar (Oxoid), inoculum ca. 10^4 germs per inoculation point; read-out: Minimale Hemmkonzentrationen
Numeric answer only, unit µg/mL assumed.

> print(dat)
                                   compound  test.value
1  Nc1c(F)c(N2CCCC2)c(F)c2c1c(=O)c(C(=O)O)cn2C1CC1 [Beispiel 27]           2
2  Nc1c(F)c(N2CCC(O)C2)c(F)c2c1c(=O)c(C(=O)O)cn2C1CC1 (stereo not shown) [Beispiel 28]        0.25
3  CCN1CCN(c2c(F)c(N)c3c(=O)c(C(=O)O)cn(C4CC4)c3c2F)CC1 [Beispiel 20]        0.25

Now, please, on to the next compound.
Looking for the measured MIC of Nc1c(F)c(N2CCOCC2)c(F)c2c1c(=O)c(C(=O)O)cn2C1CC1 [Beispiel 26] , can you help?
4

Data origin, for the record: patent EP0284935A1
